Tested on: Puccinia recondita
assayName: Fungicidal activity against Wheat Leaf Rust (WLR) disease
Type: in vivo
particulars: Wheat Leaf Rust; concentration 2 ppm
observable: WLR (Fungicidal Activities, C.V.) (%)
Give just the numeric value; % need not be written.

Identify measured WLR (Fungicidal Activities, C.V.) corresponding to CCOc1ccc(C=C(F)Oc2cccc(C=NOCc3ccccc3C(=NOC)C(=O)NC)c2)cc1 [Compound 36] 0

Identify measured WLR (Fungicidal Activities, C.V.) corresponding to CCc1ccc(C=C(F)Oc2cccc(C(C)=NOCc3ccccc3C(=NOC)C(=O)NC)c2)cc1 [Compound 79] 98

====

Test system: Erysiphae graminis
assayName: Fungicidal activity against Barley Powdery Mildew (BPM) disease
Assay type: in vivo
particulars: Barley Powdery Mildew; concentration 50 ppm
# key: entry, value: BPM (Fungicidal Activities, C.V.)
Give just the numeric value; % need not be written.

Some entries whose results are on file:
# smi, measurementUnits, BPM (Fungicidal Activities, C.V.)
rows = [
    ("CNC(=O)C(=NOC)c1ccccc1CON=Cc1cccc(OC(F)=Cc2cccc(Cl)c2)c1", "%", 100),
    ("CON=C(C(=O)OC)c1ccccc1CON=Cc1cccc(OC(F)=Cc2ccccc2)c1", "%", 100),
    ("COC=C(C(=O)OC)c1ccccc1CON=C(c1cccc(OC(F)=Cc2cccc(F)c2)c1)C(F)(F)F", "%", 99),
    ("CON=C(C(=O)OC)c1ccccc1CON=C(C)c1cccc(OC(F)=Cc2ccc(C)cc2)c1", "%", 100),
    ("COC=C(C(=O)OC)c1ccccc1CON=Cc1cccc(OC(F)=Cc2ccc(Cl)cc2)c1", "%", 100),
]

Identify measured BPM (Fungicidal Activities, C.V.) corresponding to CNC(=O)C(=COC)c1ccccc1CON=C(C)c1cccc(OC(F)=Cc2cc(C)cc(C)c2)c1 98

Identify measured BPM (Fungicidal Activities, C.V.) corresponding to CON=C(C(=O)OC)c1ccccc1CON=Cc1cccc(OC(F)=C(c2ccccc2)C(F)(F)F)c1 100

Identify measured BPM (Fungicidal Activities, C.V.) corresponding to COC=C(C(=O)OC)c1ccccc1CON=C(C)c1cccc(OC(F)=C(c2cccc(C)c2)C(F)(F)F)c1 100

Identify measured BPM (Fungicidal Activities, C.V.) corresponding to CCc1ccc(C=C(F)Oc2cccc(C=NOCc3ccccc3C(=COC)C(=O)OC)c2)cc1 100

Identify measured BPM (Fungicidal Activities, C.V.) corresponding to CNC(=O)C(=NOC)c1ccccc1CON=C(C)c1cccc(OC(F)=Cc2ccc(F)cc2)c1 100

Attribution: patent US6552080B1
